I'd be grateful if you could share measured IC50 for these entries.
target.under.test: THERMINATOR™ DNA polymerase (Thermococcus sp., UniProt Q56366, A485L/D141A/E143A)
Construct: purchased New England Biolabs
Sequence (Q56366 whole entry D141A/E143A/A485L): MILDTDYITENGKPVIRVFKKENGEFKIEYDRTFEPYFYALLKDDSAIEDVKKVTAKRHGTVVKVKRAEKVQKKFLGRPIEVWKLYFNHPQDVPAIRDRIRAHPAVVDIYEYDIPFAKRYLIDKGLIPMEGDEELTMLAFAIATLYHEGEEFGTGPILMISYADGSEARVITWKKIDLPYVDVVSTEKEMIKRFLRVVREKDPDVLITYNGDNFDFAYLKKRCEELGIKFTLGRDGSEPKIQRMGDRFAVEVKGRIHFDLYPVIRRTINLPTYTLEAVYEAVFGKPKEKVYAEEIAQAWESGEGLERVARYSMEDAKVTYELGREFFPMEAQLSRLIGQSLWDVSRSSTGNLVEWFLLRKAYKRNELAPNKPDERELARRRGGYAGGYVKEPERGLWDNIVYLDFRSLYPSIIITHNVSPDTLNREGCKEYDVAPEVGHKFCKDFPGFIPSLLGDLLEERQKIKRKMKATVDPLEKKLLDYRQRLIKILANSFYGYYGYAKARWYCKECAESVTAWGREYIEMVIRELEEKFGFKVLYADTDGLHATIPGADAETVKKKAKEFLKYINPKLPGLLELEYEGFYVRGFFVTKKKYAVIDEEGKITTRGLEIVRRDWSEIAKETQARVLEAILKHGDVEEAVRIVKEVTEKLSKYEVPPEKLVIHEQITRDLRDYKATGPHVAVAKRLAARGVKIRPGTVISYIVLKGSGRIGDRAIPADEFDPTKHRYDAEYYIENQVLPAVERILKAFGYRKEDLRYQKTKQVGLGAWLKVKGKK
experiment.description: biochemical
Parameters: species or system Thermococcus species 9° N-7
details: IC50 for incorporation, concentration at which the compound incorporates on half the primer-template complexes; complement template base
Output spec: scalar in nM, unitless text.

What measured IC50 goes with CC(Oc1nc(N)nc2c1ncn2[C@H]1C[C@H](O)[C@@H](COP(=O)(O)OP(=O)(O)OP(=O)(O)O)O1)c1ccccc1[N+](=O)[O-] (mixture of isomers) ?
10

Need IC50 of "O=c1[nH]c(=O)n([C@H]2C[C@H](O)[C@@H](COP(=O)(O)OP(=O)(O)OP(=O)(O)O)O2)cc1COCc1ccccc1" , thanks.
1.4

Entry CC(Nc1ncnc2c1ncn2[C@H]1C[C@H](O)[C@@H](COP(=O)(O)OP(=O)(O)OP(=O)(O)O)O1)c1ccccc1[N+](=O)[O-] (mixture of isomers) : reported IC50 = ?
8.5

# get_value(readout='IC50', item= CC(C)C(OCc1cn([C@H]2C[C@H](O)[C@@H](COP(=O)(O)OP(=O)(O)OP(=O)(O)O)O2)c(=O)[nH]c1=O)c1ccccc1 (mixture of isomers) )
0.8

What value of IC50 has been reported for the following compound? "CC(C)c1ccccc1COCc1cn([C@H]2C[C@H](O)[C@@H](COP(=O)(O)OP(=O)(O)OP(=O)(O)O)O2)c(=O)[nH]c1=O"
1.4
